Known Population Tubulin-Different-Phenotype (%) of a selection of compounds
test system: HEK-293T; test: Multiplex assay against HEK293T; type: toxicity, cell-based; details: human, 48 h, 1 µM, compound concentration 1 uM, replicate 2
recordedEndpoint: Population Tubulin-Different-Phenotype (%)

# compound, val
records = [
    ("COc1cc(C(=O)N2CC[C@@H](O)[C@@H](N)C2)cc2nc(-c3cc4ccccc4n3CC3CC3)n(C)c12.Cl", 22),
    ("Cc1cc(=O)n(C)c2cc(N3C(=O)CC[C@H](NS(=O)(=O)CC(C)C)[C@H]3c3ccc(Cl)cc3)ccc12", 17),
    ("S=C(NCCCc1c[nH]cn1)NCCCN(Cc1ccc(Cl)c(Cl)c1)c1ccc(Br)cn1", 19),
    ("O=C(NCCNCC(O)COc1ccc(O)cc1)N1CCOCC1.O=C(NCCNCC(O)COc1ccc(O)cc1)N1CCOCC1.O=C(O)/C=C/C(=O)O (stereo not drawn) [XAMOTEROL FUMARATE]", 10),
    ("COc1cc(Nc2ncc3c(n2)-c2ccc(Cl)cc2C(c2c(F)cccc2OC)=NC3)ccc1C(=O)O", 24),
    ("COc1cc(OC2CCN(C(C)=O)CC2)ccc1C(=O)N1CCC(N2C(=O)OCc3ccccc32)CC1", 12),
    ("O=c1ccc2ccc(OCCCCN3CCN(c4cccc5sccc45)CC3)cc2[nH]1", 26),
    ("Nc1nc(-c2ccco2)c2cnn(Cc3ccccc3F)c2n1", 14),
    ("CN1CCC(C(=O)c2cccc(NC(=O)c3c(F)cc(F)cc3F)n2)CC1", 10),
    ("COc1ccc2c(c1OCc1ccccc1)C[C@@H](C(=O)O)N(C(=O)C(c1ccccc1)c1ccccc1)C2", 10),
    ("CC(C)C[C@H](CO)Nc1nc(S[C@@H](C)c2ccccc2)nc2nc(N)sc12", 13),
    ("COCCn1c(C)c(C)s/c1=N\\C(=O)C1C(C)(C)C1(C)C", 12),
    ("Cc1nn(C)c2nc(NNC(=O)Nc3cc(Cl)nc(Cl)c3)cc(C(C)C)c12", 19),
]

----------
system: Fibroblast; test: Multiplex assay against human fibroblast; format: toxicity, cell-based; details: 24 h, 1 µM, compound concentration 1 uM, replicate 1
recordedEndpoint: Population Normal (%)

# compound, recordedEndpoint, val
measured = [
    ("Cc1c(Cc2ccc3ccccc3n2)c2cc(F)ccc2n1CC(=O)O", "Population Normal (%)", "98%"),
    ("CCn1c(-c2nc3cc(C(=O)N4CCCC(N)C4)ccc3n2C)cc2ccccc21.Cl (stereo not given)", "Population Normal (%)", "99%"),
    ("O=c1nc2[nH]c3ccccc3nc-2c(=O)[nH]1", "Population Normal (%)", "96%"),
    ("CCCCC[C@H](O)/C=C/[C@H]1[C@H](O)CC(=O)[C@@H]1CCCCCCC(=O)O", "Population Normal (%)", "99%"),
    ("CCC(=O)OCC(=O)[C@@]1(OC(=O)CC)[C@@H](C)C[C@H]2[C@@H]3CCC4=CC(=O)C=C[C@]4(C)[C@@]3(Cl)[C@@H](O)C[C@@]21C [BECLOMETHASONE DIPROPIONATE]", "Population Normal (%)", "98%"),
]

----------
Known Population Apoptotic (%) of a selection of molecules
test system: HEK-293T; assay: Multiplex assay against HEK293T; assay type: toxicity, cell-based; conditions: human, 12 h, 10 µM, compound concentration 10 uM, replicate 1
recordedEndpoint: Population Apoptotic (%)

# smilesEntry, testTarget, unitTag, val
records = [
    ("Cc1cc(-c2ccc3c(c2)CC[C@H]3N2CC3(CCN(C(=O)Cc4cn5cc(C)sc5n4)CC3)C2)ncn1", "HEK-293T", "%", 40),
    ("COc1cc(OC2CCN(C(C)=O)CC2)ccc1C(=O)N1CCC(N2C(=O)OCc3ccccc32)CC1", "HEK-293T", "%", 40),
    ("O=c1nc2[nH]c3ccccc3nc-2c(=O)[nH]1", "HEK-293T", "%", 40),
]

----------
tested on: U2OS; assay: Multiplex assay against U2OS; type: toxicity, cell-based; settings: human, 48 h, 1 µM, compound concentration 1 uM, replicate 2
Grouping rule (Population Apoptotic (%)): low value = under 80%, medium value = from 80% up to 90%, high value = 90% and over

# compound, testTarget, group
records = [
    ("OCCCNc1cc(-c2ccnc(Nc3cccc(Cl)c3)n2)ccn1", "U2OS", "high value"),
    ("Cc1cc(=O)n(C)c2cc(N3C(=O)CC[C@H](NS(=O)(=O)CC(C)C)[C@H]3c3ccc(Cl)cc3)ccc12", "U2OS", "high value"),
    ("CC(C)(C)c1ccc(CSc2cnn(C(C)(C)C)c(=O)c2Cl)cc1", "U2OS", "medium value"),
    ("Cc1cc(NC(=O)NCCN2CCC(O)(Cc3ccccc3)CC2)c2ccccc2n1", "U2OS", "medium value"),
    ("Cc1cc(O)c(-c2ccc([C@@H](C)CN(C)C)cc2)c2c1[nH]c(=O)c1sccc12", "U2OS", "high value"),
    ("Cc1cc(-c2ccc3c(c2)CC[C@H]3N2CC3(CCN(C(=O)Cc4cn5cc(C)sc5n4)CC3)C2)ncn1", "U2OS", "low value"),
    ("O=c1ccc2ccc(OCCCCN3CCN(c4cccc5sccc45)CC3)cc2[nH]1", "U2OS", "low value"),
    ("COc1cc2nc(N3CCN(C(=O)COc4c(OC)cccc4C(C)C)CC3)nc(N)c2cc1OC.Cl.Cl", "U2OS", "low value"),
    ("COc1ccc2[nH]c(I)c(CCNC(C)=O)c2c1", "U2OS", "medium value"),
    ("CC(C)(O)C(=O)N1CCN(c2ccc(C(F)(F)F)c(C3=C(c4c[nH]c5ccccc45)C(=O)NC3=O)c2)CC1", "U2OS", "medium value"),
    ("COCCCN1CCC(NC(=O)c2cc(Cl)c(N)c3c2OCC3)CC1 [PRUCALOPRIDE]", "U2OS", "medium value"),
    ("Cn1cc(C(=O)OCC2CCN(CCNS(C)(=O)=O)CC2)c2ccccc21", "U2OS", "low value"),
    ("COc1cc(C(=O)N2CC[C@@H](O)[C@@H](N)C2)cc2nc(-c3cc4ccccc4n3CC3CC3)n(C)c12.Cl", "U2OS", "low value"),
    ("CCCCC[C@H](O)/C=C/[C@H]1[C@H](O)CC(=O)[C@@H]1CCCCCCC(=O)O", "U2OS", "high value"),
    ("CN(C)C/C=C/C(=O)Nc1ccc(C(=O)N2CCCC(Nc3ncc(Cl)c(-c4c[nH]c5ccccc45)n3)C2)cc1 (centres undefined)", "U2OS", "high value"),
]

----------
tested on: Fibroblast; assay: Multiplex assay against human fibroblast; assay type: toxicity, cell-based; conditions: 12 h, 1 µM, compound concentration 1 uM, replicate 1
Non-standard residues stand in square brackets, D forms with d. Residues, ends and D or L forms follow the SMILES beside them.
Known Population Membrane Permeable-Phenotype (%) of a selection of compounds
recordedEndpoint: Population Membrane Permeable-Phenotype (%)

# compound, unitTag, val
measured = [
    ("CC(C)C[C@@H]1NC(=O)[C@@H](C(C)C)NC(=O)[C@@H]2CCCN2C(=O)[C@@H](CC(=O)O)NC(=O)[C@@H](Cc2c[nH]c3ccccc23)NC1=O [BQ-123] (cyclo(L[dW][dD]P[dV]))", "%", 1),
    ("N[C@](CC1c2ccccc2Oc2ccccc21)(C(=O)O)[C@H]1C[C@@H]1C(=O)O", "%", 0),
    ("Cc1ccc(OCC(O)C(C)NC(C)C)c2c1CCC2.Cl (centres undefined)", "%", 0),
    ("CSc1nc(NC2CCCC2)c([N+](=O)[O-])c(NC2CCCC2)n1 [GS-39783]", "%", 2),
    ("CN1CCC(C(=O)c2cccc(NC(=O)c3c(F)cc(F)cc3F)n2)CC1", "%", 1),
    ("COc1cc(C(=O)N2CC[C@@H](O)[C@@H](N)C2)cc2nc(-c3cc4ccccc4n3CC3CC3)n(C)c12.Cl", "%", 0),
    ("COc1cc2nc(N3CCN(C(=O)COc4c(OC)cccc4C(C)C)CC3)nc(N)c2cc1OC.Cl.Cl", "%", 3),
    ("COc1cc2nc(N3CCN(C(=O)c4ccco4)CC3)nc(N)c2cc1OC.Cl [PRAZOSIN HYDROCHLORIDE]", "%", 1),
    ("OCCCNc1cc(-c2ccnc(Nc3cccc(Cl)c3)n2)ccn1", "%", 0),
    ("Nc1nc(-c2ccco2)c2cnn(Cc3ccccc3F)c2n1", "%", 1),
    ("S=C(NCCCc1c[nH]cn1)NCCCN(Cc1ccc(Cl)c(Cl)c1)c1ccc(Br)cn1", "%", 1),
    ("Cc1cc(-c2ccc3c(c2)CC[C@H]3N2CC3(CCN(C(=O)Cc4cn5cc(C)sc5n4)CC3)C2)ncn1 [PF-5190457]", "%", 1),
    ("CCCCC[C@H](O)/C=C/[C@H]1[C@H](O)CC(=O)[C@@H]1CCCCCCC(=O)O [ALPROSTADIL]", "%", 0),
    ("CC(C)(C)c1ccc(CSc2cnn(C(C)(C)C)c(=O)c2Cl)cc1 [PYRIDABEN]", "%", 3),
]
